assay_system: human BRD4 second bromodomain (BDII_E352-M457) (Homo sapiens (Human))
assay_details: TR-FRET bromodomain binding assay, BRD4 second bromodomain
metric: Ki (nM)

compound_structure_string=Cn1cc(-c2cc(S(C)(=O)=O)ccc2Oc2ccc(F)cc2F)c2cc(C(=O)N3CCOCC3)[nH]c2c1=O metric=Ki assay_result=154
compound_structure_string=CCS(=O)(=O)c1ccc(OC2CCN(C)CC2)c(-c2cn(C)c(=O)c3[nH]ccc23)c1 metric=Ki assay_result=94
compound_structure_string=Cn1cc(-c2cc(C(=O)NCc3cccnc3)ccc2Oc2ccc(F)cc2F)c2cc[nH]c2c1=O metric=Ki assay_result=112

----------
assay_details: Mouse liver microsome stability assay
Type: in vitro ADME
condition_context: male, CD1, mouse, microsomes, pH 7.4
metric: half-life at 0.5 μM (min)

The following compounds have reported results that may help.
compound=CCS(=O)(=O)c1ccc(Oc2ccc(F)cc2F)c(-c2cn(C)c(=O)c3[nH]ccc23)c1 assay_result=25
compound="Cn1cc(-c2cc(NS(C)(=O)=O)ccc2OC2CCOC2)c2cc[nH]c2c1=O (stereo not drawn)" assay_result=19
compound=CCS(=O)(=O)c1ccc(O[C@H]2CC[C@@H](OC)CC2)c(-c2cn(C)c(=O)c3[nH]ccc23)c1 assay_result=5

A = CCNC(=O)c1cc2c(-c3cc(NS(C)(=O)=O)ccc3Oc3ccccc3)cn(C)c(=O)c2[nH]1
B = CN(C)C1CCN(S(=O)(=O)c2ccc(OCC3CC3)c(-c3cn(C)c(=O)c4[nH]ccc34)c2)C1 (stereo not drawn)
IN: Of A and B , whose reported half-life at 0.5 μM is numerically smaller? Give the label of your selection.
OUT: B
(B: 9 min, A: 70 min)

----------
assay_system: human BRD4 first bromodomain (BDI_K57-E168) (Homo sapiens (Human), UniProt O60885)
assay_details: TR-FRET bromodomain binding assay, BRD4 first bromodomain
metric: Ki (nM)

The following molecules have reported results that may help.
molecule="Cn1cc(-c2cc(S(=O)(=O)N3CCOCC3)ccc2OCC2CC2)c2cc[nH]c2c1=O [Example 286]" metric=Ki assay_result=12.1
molecule="CCS(=O)(=O)N(CCN(C)C)c1ccc(Oc2ccc(F)cc2F)c(-c2cn(C)c(=O)c3[nH]ccc23)c1 [Example 296]" metric=Ki assay_result=705
molecule="Cn1cc(-c2cc(NS(C)(=O)=O)ccc2Oc2ccccc2C(F)(F)F)c2cc[nH]c2c1=O [Example 32]" metric=Ki assay_result=16
molecule="Cn1cc(-c2cc(S(C)(=O)=O)ccc2OCCN2CCOCC2)c2cc[nH]c2c1=O [Example 227]" metric=Ki assay_result=73.9
molecule="CCCS(=O)(=O)Nc1ccc(OC2CCOCC2)c(-c2cn(C)c(=O)c3[nH]ccc23)c1 [Example 99]" metric=Ki assay_result=3.5

1 = Cn1cc(-c2cc(S(C)(=O)=O)ccc2Oc2ccc(F)cc2F)c2cc(CN3CCOCC3)[nH]c2c1=O [Example 280]
2 = CCS(=O)(=O)c1ccc(Oc2ccc(F)cc2F)c(-c2cn(C)c(=O)c3[nH]ncc23)c1 [Example 322]
3 = CCS(=O)(=O)Nc1ccc(OC2CCOCC2)c(-c2cn(C)c(=O)c3[nH]ccc23)c1 [Example 109]
IN: Arrange by Ki, high to low. Returns: the labels listed in the requested order.
OUT: 2, 1, 3

I = Cn1cc(-c2cc(S(C)(=O)=O)ccc2Oc2cccc3c2CCC3=O)c2cc[nH]c2c1=O [Example 175]
II = CCCS(=O)(=O)Nc1ccc(Oc2c(F)cc(F)cc2F)c(-c2cn(C)c(=O)c3[nH]ccc23)c1 [Example 94]
III = CCS(=O)(=O)N(Cc1ccccn1)c1ccc(Oc2ccc(F)cc2F)c(-c2cn(C)c(=O)c3[nH]ccc23)c1 [Example 342]
IN: Arrange by Ki, high to low. Returns: the labels listed in the requested order.
OUT: III, I, II

a = Cn1cc(-c2cc(S(C)(=O)=O)ccc2NCC2CCOC2)c2cc[nH]c2c1=O (stereo not shown) [Example 201]
b = Cn1cc(-c2cc(S(=O)(=O)Nc3ccccc3)ccc2OCC2CC2)c2cc[nH]c2c1=O [Example 313]
c = Cn1cc(-c2cc(S(C)(=O)=O)ccc2OC[C@@H]2CCC(=O)N2)c2cc[nH]c2c1=O [Example 228]
IN: Arrange by Ki, high to low. Returns: the labels listed in the requested order.
OUT: c, b, a
(c: 39 nM, b: 15.8 nM, a: 10.2 nM)
